# Experiment Summary: recombinant UMI read abundance after kanamycin selection (control-corrected) (log10(CPM+1)); higher = more efficient recombination; extreme values may be limits of the assay; sequences stand for … in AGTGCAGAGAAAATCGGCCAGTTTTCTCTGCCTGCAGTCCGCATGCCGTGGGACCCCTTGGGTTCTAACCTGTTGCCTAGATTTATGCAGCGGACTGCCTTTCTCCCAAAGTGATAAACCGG…AGGTTGGTTTCACT; site = the 11-nt donor;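 further: IS621 bridge recombinase in Escherichia coli cells against a fixed T5 target plasmid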
Provide the reported recombinant UMI read abundance (log10) of each item.

# example entries with known answers
TTTGGGGCATGGACCGGTTTTCCCGGTAATCCGTATTTGCT (site TTTGAGGCTAG); 0.621
CAGAATCCATGGACCGGTTTTCCCGGTAATCCGTATTTGAT (site CGGAATCCTAA); 0
CTAGGGTCATGGACCGGTTTTCCCGGTAATCCGTATTTGAC (site CTAGGGTCTGT); 1.41
CGGGAACCATGGACCGGTTTTCCCGGTAATCCGTATTTGAT (site CGTGAACCTAT); 0
CTAGTCGCATGGACCGGTTTTCCCGGTAATCCGTATTTGCG (site TTAGTCGCTCG); 0.0191
ACACATACATGGACCGGTTTTCCCGGTAATCCGTATTTGAC (site ACACATCCTGT); 0
GTGGAGGCATGGACCGGTTTTCCCGGTAATCCGTATTTGTG (site GTGGAGACTCA); 0.959
TAACGAGCATGGACCGGTTTTCCCGGTAATCCGTATTTGGG (site TAAGGAGCTCC); 0.143

The record that follows has no recombinant UMI read abundance (log10) shown yet.
Ask | Input TCCAATTCATGGACCGGTTTTCCCGGTAATCCGTATTTGCT (site TCCAATTCTGG) , output reported recombinant UMI read abundance (log10).
Reply | 0

Hello, the source for this data is the supplement of paper PMC11208160, in case you need it.
